Source: ChEMBL document CHEMBL1201862

GI50 reference
tested on: M19-MEL; experiment: NCI tumour cell line growth inhibition, 48 h
The source made the active and inactive calls. No stated cut-off is given here; in the data, active = GI50 up to about 1.1 µM and inactive = higher. Square brackets hold non-standard residues; d marks the D form. Peptide text beside a SMILES is read from it. * marks the point of attachment. ξ: configuration not given here. NMeN = CN[C@@H](CC(N)=O)C(=O)O; NMeV = CN[C@H](C(=O)O)C(C)C; ξNMeV = CNC(C(=O)O)C(C)C; Boc = CC(C)(C)OC(=O)*; ξNMeA = CNC(C)C(=O)O
readout_label: GI50

{"columns": ["molecule", "result"],
 "data": [
  ["CCOC(=O)c1cnc2oc(-c3ccc(OC)cc3)nn2c1=O", "> 100 µM (inactive)"],
  ["C=C(CCCCCCCCC)CC(=O)SCCNC(=O)CCNC(=O)C(O)C(C)(C)COP(=O)(O)OP(=O)(O)OCC1OC(n2cnc3c(N)ncnc32)C(O)C1OP(=O)(O)O (configuration not stated)", "29.8 µM (inactive)"],
  ["CCOC(=O)CSc1cc[nH]c(=O)n1", "> 100 µM (inactive)"],
  ["N=c1oc2cc(O)c(O)cc2cc1C(N)=O", "> 100 µM (inactive)"],
  ["COC(=O)/C=C1\\CCC(C)O1 (configuration not stated)", "> 100 µM (inactive)"],
  ["COCCOCCOCCOc1cccc2c1C(=O)c1cccc(OCCOCCOCCOC)c1C2=O", "> 100 µM (inactive)"],
  ["CN(C)/C(=N\\C#N)N(Cc1ccccc1)Cc1ccccc1", "> 100 µM (inactive)"],
  ["CC1NOC(=O)C1/N=N/c1ccccc1Cl (configuration not stated)", "23 µM (inactive)"],
  ["COC12CC(O)=C(C(C)=O)C(=O)C1(C)c1c(OC(C)=O)c(C)c(O)c(C(C)=O)c1O2 (configuration not stated)", "23.2 µM (inactive)"],
  ["NC(=O)N/N=C(\\C(=O)C(=O)Nc1ccc(Cl)c(C(F)(F)F)c1)c1nc2ccc(C(=O)c3ccccc3)cc2nc1O", "> 100 µM (inactive)"],
  ["COC(=O)C(C)N(C)C(=O)[C@H](CC(N)=O)N(C)C(=O)[C@@H]1CCCN1C(=O)[C@H](C(C)C)N(C)C(=O)C(C(C)C)N(C)C(=O)[C@@H](NC(=O)OC(C)(C)C)C(C)C (some centres not stated) (Boc-V[ξNMeV][NMeV]P[NMeN][ξNMeA]-OMe)", "> 100 µM (inactive)"],
  ["Cn1cc(-c2ccc3c4ccccc4n(C)c3c2)c2ccccc21", "> 100 µM (inactive)"],
  ["CCCCCCCCCCOC(=O)c1cc[n+](C)cc1", "17.8 µM (inactive)"],
  ["Cc1ccc(NC(=O)CC/C(CC(=O)C(C)(C)C)=N/NC(=O)c2cc3ccccc3cc2O)cc1C", "39.4 µM (inactive)"],
  ["CCC1=NC(CO)[C@H](c2ccccc2)O1 (some centres not stated)", "> 100 µM (inactive)"],
  ["CC1(C)CCc2cc3c(cc2O1)OCCC3=O", "> 100 µM (inactive)"],
  ["C[N+](C)(C)CC1CCc2ccccc2C1=O (configuration not stated)", "16 µM (inactive)"]
]}

====

test system: DMS-273; assay: NCI tumour cell line growth inhibition, 48 h
The source made the active and inactive calls. Cut-off read from the data, not from the text of the source: active = GI50 up to about 1.1 µM and inactive = higher.
Outcome codes: active, inactive

{"columns": ["compound", "study_system", "class_name"],
 "data": [
  ["N=c1oc2cc(O)c(O)cc2cc1C(N)=O", "DMS-273", "inactive"],
  ["CCCCNC(=O)OCC(COc1ccccc1OC)OC(=O)NCCCC (configuration not stated)", "DMS-273", "inactive"],
  ["COCC1N=C(c2ccc(OC)c(OCc3ccccc3)c2OC)O[C@H]1c1ccccc1 (some centres not stated)", "DMS-273", "inactive"],
  ["CCCCCCCCCCOC(=O)c1cc[n+](C)cc1", "DMS-273", "inactive"],
  ["COc1cc2ccc3c4c(OC)cc(OC)c(OC)c4c([O-])[n+](C)c3c2cc1OC", "DMS-273", "active"],
  ["COC(OC)c1cccc2c1C(=O)CCC1(O)c3ccccc3C1C2 (configuration not stated)", "DMS-273", "inactive"],
  ["CN(C)C(=C1C(Br)=C(Br)C(Br)=C1Br)N(C)C", "DMS-273", "inactive"]
]}

====

system: PC-3; experiment: NCI tumour cell line growth inhibition, 48 h
Active and inactive are the calls of the source. No stated cut-off is given here; in the data, active = GI50 up to about 1.1 µM and inactive = higher. Square brackets hold non-standard residues; d marks the D form. Peptide text beside a SMILES is read from it. * marks the point of attachment. ξ: configuration not given here. NMeN = CN[C@@H](CC(N)=O)C(=O)O; NMeV = CN[C@H](C(=O)O)C(C)C; ξNMeV = CNC(C(=O)O)C(C)C; Boc = CC(C)(C)OC(=O)*; ξNMeA = CNC(C)C(=O)O
GI50 reference

{"columns": ["compound", "GI50"],
 "data": [
  ["CCC(C#N)NCc1cccc(CNC(C#N)CC)c1 (centres undefined)", "> 100 µM (inactive)"],
  ["COC(=O)C(C)N(C)C(=O)[C@H](CC(N)=O)N(C)C(=O)[C@@H]1CCCN1C(=O)[C@H](C(C)C)N(C)C(=O)C(C(C)C)N(C)C(=O)[C@@H](NC(=O)OC(C)(C)C)C(C)C (some centres undefined) (Boc-V[ξNMeV][NMeV]P[NMeN][ξNMeA]-OMe)", "11.4 µM (inactive)"],
  ["O=C(N/C(=C\\c1ccccc1)C1Nc2ccccc2C(=O)O1)c1ccccc1 (centres undefined)", "> 100 µM (inactive)"],
  ["CN(Cc1cnc2nc(N)nc(N)c2n1)c1ccc(C(=O)NC(CCC(=O)NCCC(P(=O)(O)O)P(=O)(O)O)C(=O)O)cc1 (centres undefined)", "1.79 µM (inactive)"]
]}

====

GI50 reference
system: SN12C; experiment: NCI tumour cell line growth inhibition, 48 h
Calls of active or inactive are those of the source. Rule as the data show it: active = GI50 up to about 1.1 µM and inactive = higher.

{"columns": ["compound", "study_system", "GI50"],
 "data": [
  ["O=c1c2cc(Br)ccc2nc(CNc2ccccc2)n1-c1ccccc1", "SN12C", "14.1 µM (inactive)"],
  ["Cn1cc(NC(=O)Nc2cc(C(=O)Nc3cc(C(=O)Nc4ccc5cc(S(=O)(=O)O)cc(S(=O)(=O)O)c5c4)n(C)c3)n(C)c2)cc1C(=O)Nc1cc(C(=O)Nc2ccc3cc(S(=O)(=O)O)cc(S(=O)(=O)O)c3c2)n(C)c1", "SN12C", "> 100 µM (inactive)"],
  ["COC(=O)c1c(C)[nH]c2c1cc(O)c1nc(C)c(C)nc12", "SN12C", "> 100 µM (inactive)"],
  ["COC(=O)/C=C1\\CCC(C)O1 (stereo not drawn)", "SN12C", "> 100 µM (inactive)"],
  ["CCOC(=O)c1cc(NC(=O)c2ccccc2)c(=O)n2c(cc3c(Cl)cccc32)c1O", "SN12C", "> 100 µM (inactive)"],
  ["NCc1cccc(O)c1O", "SN12C", "> 100 µM (inactive)"],
  ["C=C1C(=O)OCC2C(C(=O)O)=CC3C(C)C(C)=CC123 (stereo not drawn)", "SN12C", "8.73 µM (inactive)"],
  ["COC12CC(O)=C(C(C)=O)C(=O)C1(C)c1c(OC(C)=O)c(C)c(O)c(C(C)=O)c1O2 (stereo not drawn)", "SN12C", "11.6 µM (inactive)"]
]}

====

system: HL-60; experiment: NCI tumour cell line growth inhibition, 48 h
Activity calls are given as the source filed them. No stated cut-off is given here; in the data, active = GI50 up to about 1.1 µM and inactive = higher.
Outcome codes: active, inactive

{"columns": ["compound", "study_system", "class_name"],
 "data": [
  ["CC(=O)NNc1nc(C)c(C(=O)NNC(=O)C(=O)Nc2ccc(Cl)cc2)s1", "HL-60", "inactive"],
  ["COC1=CC(=O)C(C2(OC(C)C)OC(=O)C(Cl)=C2Cl)=CC1=O (centres undefined)", "HL-60", "active"],
  ["NC1CNC(=O)c2c(Cl)sc(Cl)c21 (centres undefined)", "HL-60", "inactive"],
  ["O=C(CCN1CCOCC1)c1ccc(Oc2ccc(F)cc2)cc1", "HL-60", "inactive"]
]}

====

test system: UACC-62; test: NCI tumour cell line growth inhibition, 48 h
Activity calls are given as the source filed them. Rule as the data show it: active = GI50 up to about 1.1 µM and inactive = higher.

{"columns": ["molecule", "GI50"],
 "data": [
  ["Cc1cc2nc3c(N)nn(CCN(C)C)c3nc2cc1C", "39.5 µM (inactive)"],
  ["CCOC(=O)c1cc(NC(=O)c2ccccc2)c(=O)n2c(cc3c(Cl)cccc32)c1O", "> 100 µM (inactive)"],
  ["O=C(/C=C/c1ccc2c(c1)OCO2)Cc1nc2ccccc2[nH]c1=O", "6.76 µM (inactive)"],
  ["CC(=O)C1(C(=O)C(=[N+]=[N-])S(=O)(=O)c2ccccc2)CC1", "> 100 µM (inactive)"],
  ["COC(=O)C1=C(C)N(NC(N)=O)C2(N)N(NC(N)=O)C(C)=C(C(=O)OC)C12C#N (stereo unspecified)", "> 100 µM (inactive)"],
  ["O=C1Nc2ccccc2/C1=N/NC(=S)N1CCCC1", "1.32 µM (inactive)"],
  ["O=C(CC(=O)N1N=C(N2CCCCC2)CC1c1ccccc1)Nc1ccc(Cl)cc1 (stereo unspecified)", "> 100 µM (inactive)"],
  ["Nc1ccc2nc3n(c2c1)C(c1c(F)cccc1F)SC3 (stereo unspecified)", "> 100 µM (inactive)"],
  ["CC1CC(=O)C2CC(CO)=CCCC2C1(C)CC/C(=C/CO)CO (stereo unspecified)", "> 100 µM (inactive)"],
  ["COc1cc2c(c3c1c(=O)c1ccccc1n3C)C=CC1(CCCC1)O2", "13.1 µM (inactive)"],
  ["CC1(C(=O)O)CCC2(C)CCC3(C)C(=CC(=O)C4C5(C)CCC(O)C(C)(C)C5CCC43C)C2C1 (stereo unspecified)", "21 µM (inactive)"]
]}
